System: CP305
protocol.text: qHTS profiling for inhibitors of Plasmodium falciparum proliferation (AID 504749); note: nearly all actives have a fitted effect of over 60% in size
test.conditions: P. falciparum in erythrocytes, SYBR Green DNA, 72 h; series mostly up to 28.7 µM
Inconclusive results are not listed. Active and inactive are the calls of the source. Calls come from the whole dose curve; as a rule, active = well fitted inhibition curve with a large enough effect; inconclusive = small, poorly fitted or top-dose-only effect; inactive = flat fitted curve, though single readings scatter.

compound	tested.target	outcome
CCN(CC)CCO[C@H]1CC[C@@]2(C)C(=CC[C@@H]3[C@H]2CC[C@]2(C)C(=O)CC[C@H]32)C1	CP305	inactive
CO[C@H]1[C@@H](O)CC(OC2[C@@H](O)CC(OC3[C@@H](O)C[C@H](OC4CC[C@@]5(C)C(CCC6C5CC(O)[C@]5(C)[C@H](C7=CC(=O)OC7)CCC65O)C4)O[C@@H]3C)O[C@@H]2C)O[C@@H]1C (some centres undefined)	CP305	inactive
O=C(O)c1ccccc1-c1c2cc(Br)c(=O)cc-2oc2[c]([Hg])c(O)c(Br)cc12	CP305	inactive
C[N+](C)(C)CC(=O)[O-]	CP305	inactive

---

protocol.text: qHTS for Inhibitors of the Functional Ribonucleoprotein Complex (vRNP) of Lymphocytic Choriomeningitis Arenaviruses (LCMV): Viability assay - alamar blue signal for LCMV Primary Screen (AID 1347085); note: nearly all actives have a fitted effect of over 80% in size
test.conditions: alamar blue viability counter-screen, LCMV vRNP screen cells; series mostly up to 57.5 µM
Records with an inconclusive call do not appear. Calls of active or inactive are those of the source. The call rests on the fitted dose curve; tested in HEK293 reporter line.
Labels: Y for active, N for inactive

> print(dat)
                                   compound  qualitative.label
1  Cc1ccc([N+](=O)[O-])cc1S(=O)(=O)N(C)N=Cc1cnc2ccc(Br)cn12                  Y
2  C[C@]12CCC(=O)C=C1[C@@H]1CC1[C@H]1[C@H]3[C@@H]4C[C@H]4[C@@]4(CCC(=O)O4)[C@@]3(C)CC[C@H]12 (some centres undefined)                  N
3              COc1ccc2ccc(=O)oc2c1CC=C(C)C                  N
4  COc1c(O)c2c(=O)cc(OC)c3c4c(OC)cc(=O)c5c(O)c(OC)c6c(c(c1C[C@@](C)(O)[C@H]6C(C)=O)c23)c54                  N
5  COc1ccc2c(OCc3nnc4ccc(-c5ccccc5)nn34)ccnc2c1                  N
6         C/C(=N/N=C(\C)c1ccccc1O)c1ccccc1O                  N
7       O=S(=O)(c1cccc2c(I)cccc12)N1CCCNCC1                  N
8  CCCC1O[C@@H]2C[C@H]3[C@@H]4CCC5=CC(=O)C=C[C@]5(C)[C@H]4[C@@H](O)C[C@]3(C)[C@]2(C(=O)CO)O1 (some centres undefined)                  N
9      CC(Oc1ccc(O)cc1)(P(=O)(O)O)P(=O)(O)O                  N

---

protocol.text: qHTS for Inhibitors of the Functional Ribonucleoprotein Complex (vRNP) of Lassa (LASV) Arenavirus: Viability assay - alamar blue signal for LASV Primary Screen (AID 1347083); note: nearly all actives have a fitted effect of over 80% in size
test.conditions: cell viability, alamar blue fluorescence (LASV minigenome counter-screen); series mostly up to 57.5 µM
Inconclusive results are not listed. The source made the active and inactive calls. The call rests on the fitted dose curve; tested in HEK293 reporter line.
Labels: active, inactive

molecule	qualitative.label
O=C(NC1CCOCC1)c1ccc(-c2cc(-c3cn[nH]c3-c3ccccn3)ccn2)cc1	inactive
Cc1cc(O)c2c(c1)C(O)(C1OC(CO)C(O)C(O)C1O)c1cccc(O)c1C2=O (stereo unspecified)	inactive
Cc1ncnc2nc[nH]c12	active
Cc1cc(C(C)Nc2ccccc2)c2nc(N3CCOCC3)cc(=O)n2c1 (stereo unspecified)	active
O=C(O)CCCCC(CCSCc1ccccc1)SCc1ccccc1 (stereo unspecified)	inactive
O=C(/C=C/c1ccc(O)cc1)c1ccc(O)cc1O	inactive
O=c1[nH]c2cc([N+](=O)[O-])c([N+](=O)[O-])cc2[nH]c1=O	inactive
COc1ccc(CCC(=O)Nc2nc3ccc(Cl)cc3s2)cc1OC	inactive
OC[C@H]1O[C@@H](Oc2ccc(O)cc2)[C@H](O)[C@@H](O)[C@H]1O	inactive
OC[C@H]1O[C@@H](Oc2cc(O)cc(C=Cc3ccc(O)cc3)c2)[C@H](O)[C@@H](O)[C@H]1O	inactive
C=C(C)[C@@H]1CC[C@]2(C(=O)O)CC[C@]3(C)[C@H](CC[C@@H]4[C@@]5(C)CC[C@H](O)C(C)(C)[C@@H]5CC[C@]43C)[C@@H]12	inactive
NC(=O)c1c[nH]c2ccccc12	inactive
COc1cc2c(c(OC)c1OC)-c1c(cc(OC)c(OC)c1OC)CC(C)C(C)C2 (stereo unspecified)	inactive
O=C(O)CCn1c2c(c3ccccc31)C[C@H](NS(=O)(=O)c1ccc(F)cc1)CC2	inactive
CC1=CC[C@@]23C[C@@H]1C(C)(C)[C@@H]2CC[C@H]3C	inactive
CC(C)CCOC(=O)c1ccccc1	inactive
N#CC(=C(N)Sc1ccc(N)cc1)c1ccccc1C(F)(F)F	inactive
C[C@H](Cn1cnc2c(N)ncnc21)OCP(=O)(O)O	inactive
COc1cc2c(c3oc(-c4ccccc4)cc(=O)c13)C=CC(C)(C)O2	inactive
COC(=O)c1cc(O)c(O)c(O)c1	inactive
COc1ccc([C@@H]2CC(=O)c3c(O)cc(O[C@@H]4O[C@H](CO[C@@H]5O[C@@H](C)[C@H](O)[C@@H](O)[C@@H]5O)[C@@H](O)[C@H](O)[C@@H]4O)cc3O2)cc1O	inactive
